Test: Mean half-life in Swiss albino male mice at 1 mg/kg per compound (administered iv in a mixture of 5 compounds to 3 mice) assessed by LCMS/MS.
Format: ADME, organism-based
Settings: mouse, in vivo
Label True for high-side half-life (at or above 0.5 h) and False for low-side half-life (below it).

Oc1ccc(-c2cnn3ccc(-c4cccc(C(F)(F)F)c4)cc23)c(F)c1; False

Reported half-life at or above 0.5 h? "COc1ccc(-c2c(C)nn3cnc(-c4cccc(C(F)(F)F)c4)cc23)cc1O"
False

In plain terms: is recorded half-life at least 0.5 h for "CC(C)c1nc2cnc(-c3ccc(F)c(C(F)(F)F)c3)nc2n1-c1c(F)cc(O)cc1F" ?
True

###

Assay: Mean plasma concentration at 24h in Swiss albino male mice at […] per compound (administered orally in a mixture of 5 compounds to 3 mice) assessed by LCMS/MS.
Assay type: ADME, organism-based
Conditions: mouse, po
readout_label: concentration at 24 h (ng/mL)
Answer with a number only, understood to be in ng/mL.

Cc1nc2cnc(-c3ccc(F)c(C(F)(F)F)c3)cn2c1-c1c(F)cc(OP(=O)(O)O)cc1F; 0.1
Oc1ccc(-c2c(C(F)(F)F)nc3cnc(-c4cccc(C(F)(F)F)c4)cn23)c(F)c1; 1.9
Fc1ccc(-c2cn3c(-c4ccc5[nH]ncc5c4F)c(C(F)(F)F)nc3cn2)cc1CC(F)(F)F; 0.971

Read off the recorded concentration at 24 h for "CC(C)c1nc2cnc(-c3ccc(F)c(C(F)(F)F)c3)cn2c1-c1ccc2[nH]ncc2c1"
60.5

Input "CCc1nc2cnc(-c3cccc(C(F)(F)F)c3)cn2c1-c1ccc(O)cc1F" , output reported concentration at 24 h.
0.1

Give concentration at 24 h for "CC(C)c1cc(-c2cn3c(-c4ccc5[nH]ncc5c4F)c(C(C)C)nc3cn2)ccc1F"
4.17

Determine from records and report concentration at 24 h for "COc1ccc(-c2c(C(C)C)nc3cnc(-c4cccc(C(F)(F)F)c4)cn23)cc1OP(=O)(O)O"
0.1

###

Experiment: Concentration required to kill 50% HepG2 cells as detected by MTT staining
Format: toxicity, cell-based
Conditions: homo sapiens, read-out: TC50 (the source's name)
readout_label: CC50 (µM)
The reply should contain only the number, in µM.

# count of solved cases: 5
Cc1nc2cnc(-c3ccc(F)c(C(F)(F)C(F)(F)F)c3)cn2c1-c1c(F)cc(O)cc1F; 8.8
CC(C)c1nc2cnc(-c3cccc(C(F)(F)F)c3)cn2c1-c1ccc(OP(=O)(O)O)cc1F; 9.2
CC(C)c1nn2cnc(-c3ccc(F)c(C(F)(F)F)c3)cc2c1-c1c(F)cc(O)cc1F; 8.9
CC(C)Oc1cc(-c2cn3c(-c4ccc5[nH]ncc5c4F)c(C(F)(F)F)nc3cn2)ccc1F; 9.25
CC(C)c1nc2cnc(-c3cccc(C(F)(F)F)c3)cn2c1-c1ccc(O)cc1F; 9

Now for a further compound.
Consider the compound "Oc1cc(F)c(-c2c(C3CC3)nc3cnc(-c4ccc(F)c(C(F)(F)F)c4)cn23)c(F)c1" . State its measured CC50.
8.9

###

Test: Mean half-life in Swiss albino male mice at 1 mg/kg per compound (administered iv in a mixture of 5 compounds to 3 mice) assessed by LCMS/MS.
Format: ADME, organism-based
Details: mouse, in vivo
readout_label: log10 half-life (log10 of the value in h)
Values are log10 of half-life in h.

See these solved cases before continuing.
Fc1ccc(-c2cn3c(-c4ccc5[nH]ncc5c4)c(C(F)(F)F)nc3cn2)cc1C(F)(F)F; 1.37
COc1cc(-c2c(C(C)C)nc3cnc(-c4cccc(C(F)(F)F)c4)cn23)cc2cn[nH]c12; 0.87
CC(C)c1cc(-c2cn3c(-c4ccc5[nH]ncc5c4F)c(C(C)C)nc3cn2)ccc1F; 0.76
Cc1c(-c2c(C(F)(F)F)nc3cnc(-c4ccc(F)c(C(F)(F)F)c4)cn23)ccc2[nH]ncc12; 1.37
Cc1nc2cnc(-c3cccc(C(F)(F)F)c3)cn2c1-c1c(F)cc(O)cc1F; -0.34

Return log10 half-life for the following compound: "COc1ccc(-c2c(C(C)C)nc3cnc(-c4ccnc(N(C)C)c4)cn23)cc1O"
-0.48
